biological target: T1, human PD-L1, full-length, on CHO cells (human, UniProt Q9NZQ7 19-290); test: flow cytometry, CHO/PD-L1 cells; MFI relative to WT CD80 ECD-Fc
T1 construct: also called huPD-L1; CD274
T1 sequence (Q9NZQ7 19-290): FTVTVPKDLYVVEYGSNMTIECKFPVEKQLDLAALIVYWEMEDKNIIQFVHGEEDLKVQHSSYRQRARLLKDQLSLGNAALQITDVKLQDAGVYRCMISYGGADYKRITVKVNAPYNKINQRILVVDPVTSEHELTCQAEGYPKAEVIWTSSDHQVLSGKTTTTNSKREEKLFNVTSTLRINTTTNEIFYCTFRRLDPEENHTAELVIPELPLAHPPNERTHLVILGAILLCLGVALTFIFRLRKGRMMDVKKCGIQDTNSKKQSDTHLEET
Entries and their Fold change to WT CD80
Return type: number; implicit unit fold.

// returns reported Fold change to WT CD80 for input variant CD80 IgV-Fc K89N (Fc fusion, not shown: small tags and cut ends; a dimerising Fc or GST) VIHVTKEVKEVATLSCGHNVSVEELAQTRIYWQKEKKMVLTMMSGDMNIWPEYKNRTIFDITNNLSIVILALRPSDEGTYECVVLKYENDAFKREHLAEVTLSVKAD
0.4

# input binder: variant CD80 IgV-Fc V68M/L85Q (Fc fusion, not shown: small tags and cut ends; a dimerising Fc or GST) VIHVTKEVKEVATLSCGHNVSVEELAQTRIYWQKEKKMVLTMMSGDMNIWPEYKNRTIFDITNNLSIMILALRPSDEGTYECVVQKYEKDAFKREHLAEVTLSVKAD ; wanted: its Fold change to WT CD80
2.7

Can you share its Fold change to WT CD80? I mean this binder: variant CD80 IgV-Fc M47V/V68M (Fc fusion, not shown: small tags and cut ends; a dimerising Fc or GST) VIHVTKEVKEVATLSCGHNVSVEELAQTRIYWQKEKKMVLTMMSGDVNIWPEYKNRTIFDITNNLSIMILALRPSDEGTYECVVLKYEKDAFKREHLAEVTLSVKAD
33.5

# input binder: variant CD80 IgV-Fc E35D/D46V/M47L/L85Q (Fc fusion, not shown: small tags and cut ends; a dimerising Fc or GST) VIHVTKEVKEVATLSCGHNVSVEELAQTRIYWQKDKKMVLTMMSGVLNIWPEYKNRTIFDITNNLSIVILALRPSDEGTYECVVQKYEKDAFKREHLAEVTLSVKAD ; wanted: its Fold change to WT CD80
58.8

What measured Fold change to WT CD80 goes with variant CD80 IgV-Fc E35D/M47L (Fc fusion, not shown: small tags and cut ends; a dimerising Fc or GST) VIHVTKEVKEVATLSCGHNVSVEELAQTRIYWQKDKKMVLTMMSGDLNIWPEYKNRTIFDITNNLSIVILALRPSDEGTYECVVLKYEKDAFKREHLAEVTLSVKAD ?
58.8

Need Fold change to WT CD80, item variant CD80 IgV-Fc D46V/V68M (Fc fusion, not shown: small tags and cut ends; a dimerising Fc or GST) VIHVTKEVKEVATLSCGHNVSVEELAQTRIYWQKEKKMVLTMMSGVMNIWPEYKNRTIFDITNNLSIMILALRPSDEGTYECVVLKYEKDAFKREHLAEVTLSVKAD
17.7

# Fold change to WT CD80 lookup, item variant CD80 IgV-Fc M47V (Fc fusion, not shown: small tags and cut ends; a dimerising Fc or GST) VIHVTKEVKEVATLSCGHNVSVEELAQTRIYWQKEKKMVLTMMSGDVNIWPEYKNRTIFDITNNLSIVILALRPSDEGTYECVVLKYEKDAFKREHLAEVTLSVKAD
18.1

GET /values?readout=Fold change to WT CD80&item= variant CD80 IgV-Fc E35D (Fc fusion, not shown: small tags and cut ends; a dimerising Fc or GST) VIHVTKEVKEVATLSCGHNVSVEELAQTRIYWQKDKKMVLTMMSGDMNIWPEYKNRTIFDITNNLSIVILALRPSDEGTYECVVLKYEKDAFKREHLAEVTLSVKAD
20.2
